Euclidean distance values for the molecules below.
Tested on: FB
Test: Euclidean distance of Cell Painting phenotypic profile (signed KS, 77 features) to DMSO centroid (dimensionless distance); 5 or 10 uM (library dependent); higher = stronger phenotypic change vs DMSO (phenoactivity)
Conditions: 48 h
Where a name gives a salt, the structure may show the parent alone.
Property Label: Euclidean distance

>>> quantitative_result("CCC(C)(Oc1ccc(C2(c3ccc(OC(C)(CC)C(=O)O)cc3)CCCCC2)cc1)C(=O)O (centres undefined) [Clinofibrate]")
0.938
>>> quantitative_result("Nc1ccc(S(=O)(=O)Nc2ccnn2-c2ccccc2)cc1 [Sulfaphenazole]")
0.58
>>> quantitative_result("CCCCC(=O)O[C@]1(C(=O)CO)[C@@H](C)C[C@H]2[C@@H]3CCC4=CC(=O)C=C[C@]4(C)[C@@]3(F)[C@@H](O)C[C@@]21C [Betamethasone Valerate]")
1.71
>>> quantitative_result("CCN(CC)CCOCCOC(=O)C1(c2ccccc2)CCCC1 [Pentoxyverine Citrate]")
0.588
>>> quantitative_result("COc1ccc(Cl)cc1C(=O)NCCc1ccc(S(=O)(=O)NC(=O)NC2CCCCC2)cc1 [Glyburide]")
1.27
>>> quantitative_result("O=C(Nc1ccc(Oc2ccc(Cl)cc2)c(Cl)c1)c1cc(I)cc(I)c1O [Rafoxanide]")
1.19
>>> quantitative_result("COC(=O)C1=C(C)NC(C)=C(C(=O)OCC(C)C)C1c1ccccc1[N+](=O)[O-] (centres undefined) [Nisoldipine]")
1.86
>>> quantitative_result("COc1cc2c(cc1OC)[C@@H](Cc1cc(OC)c(OC)c(OC)c1)[N+](C)(CCCOC(=O)CC/C=C/CCC(=O)OCCC[N+]1(C)CCc3cc(OC)c(OC)cc3[C@H]1Cc1cc(OC)c(OC)c(OC)c1)CC2 (some centres undefined) [Mivacurium chloride]")
1.3
>>> quantitative_result("N#CCCCSC(=N)N [Kevetrin hydrochloride]")
0.849
>>> quantitative_result("Nc1nc(/C(=C/CC(=O)O)C(=O)N[C@@H]2C(=O)N3C(C(=O)O)=CCS[C@H]23)cs1 [Ceftibuten dihydrate]")
1.2
>>> quantitative_result("CCc1cc(/C(C)=N/OCc2ccc(C3CCCCC3)c(C(F)(F)F)c2)ccc1CN1CC(C(=O)O)C1 [BAF312 (Siponimod)]")
0.66
>>> quantitative_result("COc1ccc(CN2CCN(C(c3ccc(F)cc3)c3ccc(F)cc3)CC2)c(OC)c1OC [Lomerizine HCl]")
1.17
>>> quantitative_result("CCN1CCCC1CNC(=O)c1cc(S(=O)(=O)CC)c(N)cc1OC (centres undefined) [Amisulpride]")
1.07
>>> quantitative_result("Cn1cc(-c2ccc(S(=O)(=O)n3ccc(/C=C/C(=O)Nc4ccccc4N)c3)cc2)cn1")
2.84

###

Tested on: HEPG2
Assay: Euclidean distance of Cell Painting phenotypic profile (signed KS, 77 features) to DMSO centroid (dimensionless distance); 5 or 10 uM (library dependent); higher = stronger phenotypic change vs DMSO (phenoactivity)
Details: 48 h
Where a name gives a salt, the structure may show the parent alone.
Property Label: Euclidean distance

>>> quantitative_result("CCc1cc2c(cc1CC)CC(NC[C@H](O)c1ccc(O)c3[nH]c(=O)ccc13)C2 [Indacaterol Maleate]")
0.818
>>> quantitative_result("COc1ccc(C(=O)c2ccccc2)c(O)c1")
0.753
>>> quantitative_result("CC(=O)[C@H]1CC[C@H]2[C@@H]3CC=C4C[C@@H](O)CC[C@]4(C)[C@H]3CC[C@]12C")
0.703
>>> quantitative_result("CC1CCc2c(N3CCC(O)CC3)c(F)cc3c(=O)c(C(=O)O)cn1c23 (stereo not given)")
0.855
>>> quantitative_result("O=C(O)C1(c2ccc(-c3ccc(Cl)c(Cl)c3)c(F)c2)CC1")
1.17
>>> quantitative_result("NCCCCCNCC12CC3CC(CC(C3)C1)C2 [IEM 1754 dihydrobroMide]")
2.44
>>> quantitative_result("CC1(C)S[C@@H]2[C@H](NC(=O)[C@H](N)c3ccc(O)cc3)C(=O)N2[C@H]1C(=O)O [Amoxicillin]")
0.318
>>> quantitative_result("O=C(Cc1ccc(-c2ccc(OCCN3CCOCC3)cc2)cn1)NCc1ccccc1")
3.85
>>> quantitative_result("COc1ccc2c(c1)c(CC(=O)OCC(=O)O)c(C)n2C(=O)c1ccc(Cl)cc1")
0.526
>>> quantitative_result("Nc1ccn([C@H]2CC[C@@H](CO)O2)c(=O)n1")
2.07
>>> quantitative_result("CCC[C@@H]1C[C@@H](C(=O)N[C@@H]([C@H]2O[C@H](SC)[C@H](OP(=O)(O)O)[C@@H](O)[C@H]2O)[C@H](C)Cl)N(C)C1 [Clindamycin Phosphate]")
0.808
>>> quantitative_result("O=C(O)c1ccc(-n2nc(-c3ccccc3O)nc2-c2ccccc2O)cc1")
1.64
>>> quantitative_result("C=C1CC[C@@H]2[C@](C)(CO)[C@H](O)CC[C@@]2(C)[C@H]1C/C=C1\\C=COC1=O [Dehydroandrographolide]")
0.517
>>> quantitative_result("COc1cccc(OC)c1C(=O)OCc1cc(O)ccc1O[C@@H]1O[C@H](CO)[C@@H](O)[C@H](O)[C@H]1O [Curculigoside]")
0.446
>>> quantitative_result("CN(C(=O)c1ccc(F)cc1C(F)(F)F)C1CCN(c2nnc(-c3ccnn3C)c3ccccc23)CC1")
1
>>> quantitative_result("C[n+]1cc2c3c(ccc2c2ccc4cc5c(cc4c21)OCO5)OCO3 [Sanguinarine chloride]")
4.82
>>> quantitative_result("COc1cc2c(Oc3ccc4[nH]c(C)cc4c3F)ncnc2cc1OCCCN1CCCC1 [Cediranib Maleate]")
4.09
>>> quantitative_result("Nc1ncc2ncn(CC3(OCP(=O)(O)O)CC3)c2n1")
0.716
>>> quantitative_result("Cc1cc(-c2ccccc2)nnc1NCCN1CCOCC1 [Minaprine dihydrochloride]")
0.555
>>> quantitative_result("C=CCNC(N)=S")
0.823
>>> quantitative_result("CN(C[C@@H]1COCCO1)S(=O)(=O)Nc1ccc2ccc3ncc(-c4cnn(C)c4)cc3c(=O)c2c1")
0.888
>>> quantitative_result("CC(C)OC(=O)C(C(=O)OC(C)C)=C1SC=CS1 [Malotilate]")
1.08
>>> quantitative_result("COC(=O)C1=C(C)NC(C)=C(C(=O)OCCN(C)Cc2ccccc2)C1c1cccc([N+](=O)[O-])c1 (stereo not given) [Nicardipine HCl]")
1.24
>>> quantitative_result("CNC(=O)c1ccc(C)c(-n2c(C)cc(OCc3ccc(F)cc3F)c(Br)c2=O)c1")
1.94
>>> quantitative_result("CC[C@H](Nc1ncnc2[nH]cnc12)c1oc2ccccc2c(=O)c1-c1cccc(F)c1 [Tenalisib (RP6530)]")
0.466
>>> quantitative_result("CCc1ccc(CCOc2ccc(CC3SC(=O)NC3=O)cc2)nc1 (stereo not given)")
0.336
>>> quantitative_result("CCN[C@@H]1C[C@H](N)[C@@H](O[C@H]2OC(CN)=CC[C@H]2N)[C@H](O)[C@H]1O[C@H]1OC[C@](C)(O)[C@H](NC)[C@H]1O [Netilmicin Sulfate]")
0.625
>>> quantitative_result("C[C@H]1C[C@H]2[C@@H]3CCC4=CC(=O)C=C[C@]4(C)[C@@]3(F)[C@@H](O)C[C@]2(C)[C@@]1(O)C(=O)CO")
0.663
>>> quantitative_result("C[C@H](O)[C@H](O)[C@H]1CNc2[nH]c(N)nc(=O)c2N1 [Sapropterin Dihydrochloride]")
0.542
>>> quantitative_result("CCCC(=O)O[C@]1(C(=O)CO)CC[C@H]2[C@@H]3CCC4=CC(=O)CC[C@]4(C)[C@H]3[C@@H](O)C[C@@]21C [Hydrocortisone butyrate]")
1.87

###

Euclidean distance values for the molecules below.
Test system: A549
Experiment: Euclidean distance of Cell Painting phenotypic profile (signed KS, 77 features) to DMSO centroid (dimensionless distance); 5 or 10 uM (library dependent); higher = stronger phenotypic change vs DMSO (phenoactivity)
Settings: 48 h
Counter-ions that a name gives are not always drawn.
Property Label: Euclidean distance

>>> quantitative_result("CCOC(=O)[C@H](CCc1ccccc1)N[C@@H](C)C(=O)N1CCC[C@H]1C(=O)O [Enalapril Maleate]")
0.697
>>> quantitative_result("NC[C@H](O)c1ccc(O)c(O)c1 [Noradrenaline bitartrate monohydrate]")
0.515
>>> quantitative_result("Cc1c(S(=O)(=O)O)oc2c1C(=O)C(=O)c1c-2ccc2c1CCCC2(C)C [Tanshinone IIA sulfonate (sodium)]")
0.633
>>> quantitative_result("CCS(=O)(=O)N1CCN(c2ccc(Nc3ncc(C(N)=O)c(NC4CC4)n3)cc2)CC1")
3.03

###

Tested on: 786-O
Assay: Euclidean distance of Cell Painting phenotypic profile (signed KS, 77 features) to DMSO centroid (dimensionless distance); 5 or 10 uM (library dependent); higher = stronger phenotypic change vs DMSO (phenoactivity)
Conditions: 48 h
Where a name gives a salt, the structure may show the parent alone.
Please enter fulfilled where Euclidean distance is greater than or equal to 1, and not fulfilled where it is lower.

>>> class_assignment("NCCCCCNCC12CC3CC(CC(C3)C1)C2 [IEM 1754 dihydrobroMide]")
"not fulfilled"
>>> class_assignment("CCN(CC)CCCC(C)Nc1c2ccc(Cl)cc2nc2ccc(OC)cc12 (stereo not given) [Quinacrine 2HCl]")
"fulfilled"
>>> class_assignment("CC(C)(C)[N+]([O-])=Cc1ccc(S(=O)(=O)O)cc1S(=O)(=O)O")
"fulfilled"
>>> class_assignment("CC(=O)[C@H]1CC[C@H]2[C@@H]3CCC4=CC(=O)CC[C@]4(C)[C@H]3CC[C@]12C")
"not fulfilled"
>>> class_assignment("CCCC(C(=O)OCCN(CC)CC)(c1ccccc1)c1ccccc1 [Proadifen HCl]")
"fulfilled"
>>> class_assignment("COc1cc2c(cc1OC)[C@@H](Cc1cc(OC)c(OC)c(OC)c1)[N+](C)(CCCOC(=O)CC/C=C/CCC(=O)OCCC[N+]1(C)CCc3cc(OC)c(OC)cc3[C@H]1Cc1cc(OC)c(OC)c(OC)c1)CC2 (stereo not given in full) [Mivacurium chloride]")
"not fulfilled"
>>> class_assignment("COc1ccc2cc3[n+](cc2c1OC)CCc1cc2c(cc1-3)OCO2 [Berberine HCl]")
"not fulfilled"
>>> class_assignment("CC(C(=O)O)c1ccc2c(c1)Cc1cccnc1O2 (stereo not given)")
"fulfilled"
>>> class_assignment("C#C[C@]1(O)CC[C@H]2[C@@H]3CCC4=CC(=O)CC[C@@H]4[C@H]3C(=C)C[C@@]21CC")
"not fulfilled"
>>> class_assignment("COc1c(N2CCNC(C)C2)c(F)cc2c(=O)c(C(=O)O)cn(C3CC3)c12 (stereo not given)")
"not fulfilled"
>>> class_assignment("CO[C@@H](C(=O)N1Cc2[nH]nc(NC(=O)c3ccc(N4CCN(C)CC4)cc3)c2C1)c1ccccc1")
"fulfilled"
>>> class_assignment("NS(=O)(=O)c1ccccc1 [Benzenesulfonamide]")
"fulfilled"
>>> class_assignment("COCCCOc1ccnc(C[S+]([O-])c2nc3ccccc3[nH]2)c1C (stereo not given) [Rebeprazole sodium]")
"not fulfilled"
>>> class_assignment("O=c1cc(-c2ccccc2)oc2cc(O)c(O)c(O)c12")
"fulfilled"
>>> class_assignment("OCC1=C[C@@H](O)[C@@H]2C=CO[C@@H](O[C@@H]3O[C@H](CO)[C@@H](O)[C@H](O)[C@H]3O)[C@H]12")
"not fulfilled"
>>> class_assignment("O=c1c(O)c(-c2ccc(O)cc2)oc2cc(O)cc(O)c12")
"fulfilled"
>>> class_assignment("CC(N)C12CC3CC(CC(C3)C1)C2 (stereo not given) [Rimantadine Hydrochloride]")
"fulfilled"
>>> class_assignment("Cc1ccc(/C(=C\\CN2CCCC2)c2cccc(/C=C/C(=O)O)n2)cc1")
"fulfilled"
>>> class_assignment("N[C@H]1C[C@@H]1c1ccc(-c2cccc(O)c2)cc1")
"fulfilled"
>>> class_assignment("OCCN1CCN(CC/C=C2/c3ccccc3Sc3ccc(C(F)(F)F)cc32)CC1 [Flupenthixol dihydrochloride]")
"fulfilled"
>>> class_assignment("C[N+](C)(C)NCCC(=O)[O-] [Mildronate]")
"fulfilled"
>>> class_assignment("COCCOc1ccc2c(c1)ncn2-c1ccc2cccc(N3CCC(N)CC3)c2n1")
"fulfilled"
>>> class_assignment("CCCCC1=NC2(CCCC2)C(=O)N1Cc1ccc(-c2ccccc2S(=O)(=O)Nc2noc(C)c2C)c(COCC)c1")
"fulfilled"
